# PROTOCOL_DETAILS: Inhibition of Influenza A virus (A/Duck/Guangdong/674/2014(H5N6)) Neuraminidase N6 preincubated for 10 mins followed by MUNANA substrate addition and measured after 40 mins by fluorescence method
Categories are assigned from the measured IC50 using these intervals: lower = under 800 nM, middle = from 800 nM up to 3000 nM, upper = 3000 nM and over

COMPOUND: CCC(CC)O[C@@H]1C=C(C(=O)NCCc2cn(Cc3ccc(Br)cc3)nn2)C[C@H](N)[C@H]1NC(C)=O
QUALITATIVE_LABEL: upper

COMPOUND: CCC(CC)O[C@@H]1C=C(C(=O)NCc2cn(CCc3ccc(Br)cc3)nn2)C[C@H](N)[C@H]1NC(C)=O
QUALITATIVE_LABEL: upper

COMPOUND: CCC(CC)O[C@@H]1C=C(C(=O)NCc2cn([C@H]3C[C@H](n4cc(C)c(=O)[nH]c4=O)O[C@@H]3CO)nn2)C[C@H](N)[C@H]1NC(C)=O
QUALITATIVE_LABEL: lower

COMPOUND: CCC(CC)O[C@@H]1C=C(C(=O)NC(C)(C)c2cn([C@H]3C[C@H](n4cc(C)c(=O)[nH]c4=O)O[C@@H]3CO)nn2)C[C@H](N)[C@H]1NC(C)=O
QUALITATIVE_LABEL: lower

COMPOUND: CCC(CC)O[C@@H]1C=C(C(=O)NCc2cn(Cc3ccc(Br)cc3)nn2)C[C@H](N)[C@H]1NC(C)=O
QUALITATIVE_LABEL: lower

COMPOUND: CCC(CC)O[C@@H]1C=C(C(=O)NCCc2cn(Cc3ccc([N+](=O)[O-])cc3)nn2)C[C@H](N)[C@H]1NC(C)=O
QUALITATIVE_LABEL: upper

COMPOUND: CCC(CC)O[C@@H]1C=C(C(=O)NCc2cn(Cc3ccc(C)cc3)nn2)C[C@H](N)[C@H]1NC(C)=O
QUALITATIVE_LABEL: upper

COMPOUND: CCC(CC)O[C@@H]1C=C(C(=O)NCCc2cn([C@H]3C[C@H](n4cc(C)c(=O)[nH]c4=O)O[C@@H]3CO)nn2)C[C@H](N)[C@H]1NC(C)=O
QUALITATIVE_LABEL: upper

COMPOUND: CCC(CC)O[C@@H]1C=C(C(=O)NCc2cn(Cc3cccc(Cl)c3)nn2)C[C@H](N)[C@H]1NC(C)=O
QUALITATIVE_LABEL: middle

COMPOUND: CCC(CC)O[C@@H]1C=C(C(=O)NC(C)(C)c2cn(Cc3ccc(Br)cc3)nn2)C[C@H](N)[C@H]1NC(C)=O
QUALITATIVE_LABEL: upper

COMPOUND: CCC(CC)O[C@@H]1C=C(C(=O)NC(C)(C)c2cn(Cc3ccc([N+](=O)[O-])cc3)nn2)C[C@H](N)[C@H]1NC(C)=O
QUALITATIVE_LABEL: upper

COMPOUND: CCC(CC)O[C@@H]1C=C(C(=O)NCc2cn(CC(=O)N3CCCC3)nn2)C[C@H](N)[C@H]1NC(C)=O
QUALITATIVE_LABEL: middle

COMPOUND: CCC(CC)O[C@@H]1C=C(C(=O)NCc2cn(Cc3ccc([N+](=O)[O-])cc3)nn2)C[C@H](N)[C@H]1NC(C)=O
QUALITATIVE_LABEL: middle

COMPOUND: CCC(CC)O[C@@H]1C=C(C(=O)NCc2cn(Cc3ccc(-c4ccccc4)cc3)nn2)C[C@H](N)[C@H]1NC(C)=O
QUALITATIVE_LABEL: middle
